B1: glmS ribozyme (parent)
chain: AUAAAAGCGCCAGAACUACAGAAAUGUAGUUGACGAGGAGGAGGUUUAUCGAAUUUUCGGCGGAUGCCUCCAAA

Variants of: B1
measurementDescription: self-cleavage kobs at 2500 uM GlcN6P; higher = faster cleavage; RNA array
experimentalSetup: with glucosamine-6-phosphate
Fewer inactive variants are shown than the library holds.
reportedProperty: self-cleavage kobs at 2500 uM GlcN6P (s⁻¹)
Write the value in s⁻¹ as a bare number.

Q: Would you mind telling me what self-cleavage kobs at 2500 uM GlcN6P value was observed for C16U G37A U46C U56G ?
Result: 0.000119

Q: Would you mind telling me what self-cleavage kobs at 2500 uM GlcN6P value was observed for A6U A42G ?
Result: 0.000156

Q: Would you mind telling me what self-cleavage kobs at 2500 uM GlcN6P value was observed for A15C U56A G63C C70A ?
Result: 7.34e-05

Q: Would you mind telling me what self-cleavage kobs at 2500 uM GlcN6P value was observed for C11A A12G ?
Result: 8.06e-05

Q: Would you mind telling me what self-cleavage kobs at 2500 uM GlcN6P value was observed for A15C A39U U47A U54G ?
Result: 0.000635

Q: Would you mind telling me what self-cleavage kobs at 2500 uM GlcN6P value was observed for A48U C71A ?
Result: 0.000102

Q: Would you mind telling me what self-cleavage kobs at 2500 uM GlcN6P value was observed for U65A G66A C71U ?
Result: 0.000397

Q: Would you mind telling me what self-cleavage kobs at 2500 uM GlcN6P value was observed for G44U C67U C71U ?
Result: 0.00069

Q: Would you mind telling me what self-cleavage kobs at 2500 uM GlcN6P value was observed for C16A C50G C67A ?
Result: 0.00038

Q: Would you mind telling me what self-cleavage kobs at 2500 uM GlcN6P value was observed for A12G U31C U54C ?
Result: 3.97e-05

Q: Would you mind telling me what self-cleavage kobs at 2500 uM GlcN6P value was observed for G29U G38U G66U C68A U69G ?
Result: 0.000147

Q: Would you mind telling me what self-cleavage kobs at 2500 uM GlcN6P value was observed for A14G C67U C71U ?
Result: 0.00249

Q: Would you mind telling me what self-cleavage kobs at 2500 uM GlcN6P value was observed for A12U U65G ?
Result: 0.00239

Q: Would you mind telling me what self-cleavage kobs at 2500 uM GlcN6P value was observed for A15G G29C ?
Result: 0.00156

Q: Would you mind telling me what self-cleavage kobs at 2500 uM GlcN6P value was observed for G13A A15G ?
Result: 0.000431

Q: Would you mind telling me what self-cleavage kobs at 2500 uM GlcN6P value was observed for A6C C16U ?
Result: 3.13e-05
